# Assayed Target: human VR1 (Homo sapiens, UniProt Q8NER1)
# Construct: expressed in transfected cells
# Sequence (Q8NER1 whole entry): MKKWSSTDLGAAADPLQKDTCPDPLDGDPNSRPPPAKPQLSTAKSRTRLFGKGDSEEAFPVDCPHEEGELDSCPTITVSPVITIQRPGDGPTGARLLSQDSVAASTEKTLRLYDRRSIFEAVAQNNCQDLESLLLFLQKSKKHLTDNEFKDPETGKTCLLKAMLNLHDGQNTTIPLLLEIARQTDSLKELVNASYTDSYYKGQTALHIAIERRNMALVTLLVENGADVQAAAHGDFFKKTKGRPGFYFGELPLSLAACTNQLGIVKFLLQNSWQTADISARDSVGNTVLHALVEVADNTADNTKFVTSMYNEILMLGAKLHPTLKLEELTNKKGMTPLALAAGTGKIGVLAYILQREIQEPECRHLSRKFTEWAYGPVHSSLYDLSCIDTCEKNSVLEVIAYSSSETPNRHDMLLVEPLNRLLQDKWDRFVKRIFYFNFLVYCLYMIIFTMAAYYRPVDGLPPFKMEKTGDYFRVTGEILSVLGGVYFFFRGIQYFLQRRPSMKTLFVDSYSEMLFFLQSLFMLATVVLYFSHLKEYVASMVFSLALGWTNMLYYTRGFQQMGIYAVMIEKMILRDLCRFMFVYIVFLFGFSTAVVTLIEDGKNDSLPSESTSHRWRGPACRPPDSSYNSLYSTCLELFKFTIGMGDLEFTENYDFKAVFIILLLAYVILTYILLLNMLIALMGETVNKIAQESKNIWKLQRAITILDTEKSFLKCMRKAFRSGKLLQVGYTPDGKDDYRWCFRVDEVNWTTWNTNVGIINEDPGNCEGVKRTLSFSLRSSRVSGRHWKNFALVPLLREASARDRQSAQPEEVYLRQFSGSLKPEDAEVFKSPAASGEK
# Assay Explanation: Capsaicin-induced Ca2+ influx in the human VR1-transfected CHO cell line (Assay 1)
# Type: cell-based
# Experimental Parameters: human VR1-CHOluc9aeq cells, 10 nM capsaicin; compound purity about 40 to 90%; read-out: hVR1 class
pIC50: −log10 of the molar value.
Hi there, I'd appreciate the recorded pIC50 for every entry that follows.

Consider the following illustrative entries.
smiles_representation=O=C(Nc1ccc(Cl)c(C(F)(F)F)c1)Nc1cccc(C(F)(F)F)c1CCO assayed_target="human VR1 (Homo sapiens, UniProt Q8NER1)" observed_value="6.30 to 7.00"
smiles_representation=COc1cccc(NC(=O)Nc2cccc(-c3ccc(Cl)cc3)c2)c1CCO assayed_target="human VR1 (Homo sapiens, UniProt Q8NER1)" observed_value="> 7.00"
smiles_representation=O=C(Nc1cccc(C(F)(F)F)c1)Nc1ccccc1CCO assayed_target="human VR1 (Homo sapiens, UniProt Q8NER1)" observed_value="6.30 to 7.00"
smiles_representation=O=C(Nc1ccc(Cc2ccccc2)cc1)Nc1ccccc1CCO assayed_target="human VR1 (Homo sapiens, UniProt Q8NER1)" observed_value="6.30 to 7.00"
smiles_representation=O=C(Nc1ccc(-c2ccccc2)c(Cl)c1)Nc1ccccc1CCO assayed_target="human VR1 (Homo sapiens, UniProt Q8NER1)" observed_value="6.30 to 7.00"
smiles_representation=COc1cc(-c2cccc(NC(=O)Nc3ccccc3CCO)c2)cc(OC)c1OC assayed_target="human VR1 (Homo sapiens, UniProt Q8NER1)" observed_value="6.30 to 7.00"

Parameter requested: pIC50. Apply to each item below.
1. COc1ccc(OC)c(-c2cccc(NC(=O)Nc3ccccc3CCO)c2)c1
2. COc1cc(CNC(=O)Nc2cccc(Cl)c2)ccc1O

**Result**
["6.30 to 7.00", "> 7.00"]

**Query** Which pIC50 reading was recorded for the molecule `O=C(NCc1cccc(F)c1)Nc1ccccc1CCO` ?
**Result** 6.00 to 6.30

====

# Assayed Target: human VR1 (Homo sapiens)
# Construct: expressed in transfected cells
# Assay Explanation: Capsaicin-induced Ca2+ influx in the human VR1-transfected CHO cell line (Assay 1)
# Format: cell-based
# Experimental Parameters: human VR1-CHOluc9aeq cells, 10 nM capsaicin; compound purity about 40 to 90%; read-out: hVR1 class
Hi there, I'd appreciate the recorded IC50 for every entry that follows.

Consider the worked cases shown below.
smiles_representation=COc1ccccc1NC(=O)Nc1ccccc1CCO metric=IC50 observed_value="500 to 1000 nM"
smiles_representation=COc1cc(CNC(=O)Nc2cc([N+](=O)[O-])ccc2F)ccc1O metric=IC50 observed_value="500 to 1000 nM"
smiles_representation=COC(=O)c1ccccc1NC(=O)Nc1ccccc1CCO metric=IC50 observed_value="500 to 1000 nM"

For every item in the list below, what is its measured IC50?
1. CC(C)c1ccc(NC(=O)Nc2ccccc2CCO)cc1
2. O=C(NCc1ccccc1Cl)Nc1ccccc1CCO

**Result**
100 to 500 nM
500 to 1000 nM

====

# Assayed Target: human VR1 (Homo sapiens)
# Construct: expressed in transfected cells
# Assay Explanation: Capsaicin-induced Ca2+ influx in the human VR1-transfected CHO cell line (Assay 1)
# Type: cell-based
# Experimental Parameters: human VR1-CHOluc9aeq cells, 10 nM capsaicin; compound purity about 40 to 90%; read-out: hVR1 class
For each entry below, report its IC50 value.

// known answers, use as guide
compound="COc1ccc(Cl)cc1-c1cccc(NC(=O)Nc2ccccc2CCO)c1 [Example 227]" observed_value="< 100 nM"
compound="COc1cc(CNC(=O)Nc2ccc(Cl)c(Cl)c2)ccc1O [Example 71]" observed_value="< 100 nM"
compound="O=C(Nc1ccccc1CCO)Nc1ccc(Cl)cc1C(F)(F)F [Example 143]" observed_value="500 to 1000 nM"
compound="O=C(Nc1cccc(-c2ccc(F)cc2F)c1)Nc1ccccc1CCO [Example 199]" observed_value="< 100 nM"

**Query** I'm curious: which IC50 was measured for O=C(Nc1cccc(-c2ccc(Cl)c(Cl)c2)c1)Nc1ccccc1CCO [Example 216] tested on human VR1 (Homo sapiens)?
**Result** < 100 nM
